# Assay System: human FLAP (Homo sapiens (Human))
# Sequence (P20292 whole entry): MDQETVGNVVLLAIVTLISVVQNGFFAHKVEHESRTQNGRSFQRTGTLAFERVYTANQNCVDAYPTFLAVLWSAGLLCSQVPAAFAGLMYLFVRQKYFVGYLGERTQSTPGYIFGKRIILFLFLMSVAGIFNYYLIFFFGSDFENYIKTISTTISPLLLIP
# Protocol Description: FLAP binding assay (HTRF format)
# Condition: wild type FLAP, HTRF format
Where a name gives a salt, the structure may show the parent alone.
Readout Kind: log10 of Ki (log10 of the value in nM)
Would you kindly interpret these values as log10 of Ki expressed in nM?

Prompt: Any idea what log10 of Ki was measured for `CNS(=O)(=O)c1ccccc1-c1ccc(-c2ccc3[nH]cnc3c2)c(F)c1` ?
Response: 2.45

Prompt: What value of log10 of Ki has been recorded for this entry: `COc1c(-c2ccccc2S(=O)(=O)NC(C)(C)C)ccc(-c2cnc(N)cn2)c1F`
Response: 1.41

Prompt: If you can, please state the reported log10 of Ki value of Nc1cnc(-c2ccc(-c3cccnc3S(=O)(=O)C3CCNCC3)cc2F)cn1 [Example 832, hydrochloride] .
Response: 3.12

Prompt: Query: log10 of Ki; subject: `N#CC1(S(=O)(=O)c2ccccc2-c2ccc(-c3cnc(N)nc3)c(F)c2)CCCC1`
Response: 2.38

Prompt: Fill blank: measured log10 of Ki of the compound `C[C@H](NC(=O)c1ccccc1-c1ccc(-c2cnc(N)nc2)c(F)c1)C(F)(F)F` is ____.
Response: 2.89

Prompt: Given the compound `O=C(c1ncccc1-c1ccc(-c2cnc3[nH]ccc3c2)c(F)c1)N1CCOCC1` , what is its reported log10 of Ki?
Response: 2.86

Prompt: Query (compound): `Nc1cnc(-c2ccc(-c3cccnc3S(=O)(=O)CCN3CCOCC3)cc2F)cn1` ; field requested: log10 of Ki
Response: 2.45
